target-desc: human amylin receptor (hAMYR3) (Homo sapiens, UniProt O60896+P30988)
Construct: host or cells: BHK cells (Hollex-1 line expressing hCTR(a) and CRE-Luc), further transfected with human RAMP3
Sequence (P30988 25-474): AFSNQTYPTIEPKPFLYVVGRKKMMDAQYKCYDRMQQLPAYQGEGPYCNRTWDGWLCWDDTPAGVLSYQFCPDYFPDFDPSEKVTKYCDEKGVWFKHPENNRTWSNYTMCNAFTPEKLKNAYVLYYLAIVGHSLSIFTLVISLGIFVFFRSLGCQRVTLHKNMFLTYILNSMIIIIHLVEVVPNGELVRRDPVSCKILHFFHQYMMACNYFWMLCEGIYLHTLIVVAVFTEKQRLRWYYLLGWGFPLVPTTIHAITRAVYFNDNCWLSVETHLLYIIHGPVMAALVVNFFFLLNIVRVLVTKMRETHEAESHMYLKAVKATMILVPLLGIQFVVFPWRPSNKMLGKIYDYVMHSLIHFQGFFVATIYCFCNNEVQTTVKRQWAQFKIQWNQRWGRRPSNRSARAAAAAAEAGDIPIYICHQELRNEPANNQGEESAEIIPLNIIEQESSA
Sequence (O60896 24-148): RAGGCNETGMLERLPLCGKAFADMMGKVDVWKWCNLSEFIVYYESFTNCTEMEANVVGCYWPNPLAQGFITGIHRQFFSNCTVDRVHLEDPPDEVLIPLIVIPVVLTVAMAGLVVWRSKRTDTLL
test: Amylin receptor assay, method A (CRE-luciferase reporter, BHK cells)
Type: cell-based
condition-summary: hAMYR3 Potency, 1% HSA, EC50, method A, in the presence of 1% HSA
Numbered stars: 1 amine (or outer) side, 2 acyl side, 3 side chain; on linkers, the order of the positions; unused ones are H or OH. Square brackets hold non-standard residues; d marks the D form. Side chains are listed from the residue outwards. * marks the point of attachment. C18 diacid = O=C(O)CCCCCCCCCCCCCCCCC(=O)*; γGlu = O=C(O)[C@H](CCC(=O)[*:2])N[*:1]; AEEA = NCCOCCOCC(=O)O; Aib = CC(C)(N)C(=O)O

- substance: "Y[Aib]EGTFTSDYSILLEEQAAREFIEWLLAGGPSSGEASHLSTAQTQRLSAELHRLK([AEEA-AEEA-γGlu-C18 diacid])TLPRTETGSGSP-NH2 [Compound 80]"
  EC50 / nM: 0.0624
- substance: "H[Aib]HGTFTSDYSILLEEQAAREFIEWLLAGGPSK([AEEA-AEEA-γGlu-C18 diacid])GEASQLSTAALGRLSAELHQLATLPRTETGSGSP-NH2 [Compound 64]"
  EC50 / nM: 0.109
- substance: "Y[Aib]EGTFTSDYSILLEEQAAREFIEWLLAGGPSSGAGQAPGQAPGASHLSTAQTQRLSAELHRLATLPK([AEEA-AEEA-γGlu-C18 diacid])TETGSGSP-NH2 [Compound 57]"
  EC50 / nM: 0.085

Cited source for all entries: patent US20260174875A1
